This collection of values is drawn from paper PMC5749554.

- study system: CYP1A2 (HLM) (Homo sapiens, UniProt P05177)
- Sequence (P05177 2-516): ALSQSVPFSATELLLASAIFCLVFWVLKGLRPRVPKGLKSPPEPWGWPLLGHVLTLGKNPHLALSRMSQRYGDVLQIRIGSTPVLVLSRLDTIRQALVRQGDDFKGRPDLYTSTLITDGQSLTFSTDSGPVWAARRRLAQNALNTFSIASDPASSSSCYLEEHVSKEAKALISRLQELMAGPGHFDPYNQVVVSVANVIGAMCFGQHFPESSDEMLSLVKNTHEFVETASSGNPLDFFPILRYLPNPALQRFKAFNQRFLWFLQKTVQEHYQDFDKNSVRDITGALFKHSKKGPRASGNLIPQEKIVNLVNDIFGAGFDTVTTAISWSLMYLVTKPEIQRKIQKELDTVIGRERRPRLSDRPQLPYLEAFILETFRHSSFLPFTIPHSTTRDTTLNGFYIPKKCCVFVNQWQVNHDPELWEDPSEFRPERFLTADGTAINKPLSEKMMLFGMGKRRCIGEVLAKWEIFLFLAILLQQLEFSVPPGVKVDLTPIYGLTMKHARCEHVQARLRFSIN
- method: cocktail probe-substrate assay, HPLC
- Format: biochemical
- assay conditions: liver microsomes
endpoint name: IC50

Kindly note: CYP1A2 (HLM) (Homo sapiens, UniProt P05177), COc1cc2c(cc1OC)-c1cc3ccc4c(c3c[n+]1CC2)OCO4 [Epiberberine] , IC50 value reported: > 100 µM

----------
- study system: CYP2E1 (HLM) (Homo sapiens, UniProt P05181)
- Sequence (P05181 whole entry): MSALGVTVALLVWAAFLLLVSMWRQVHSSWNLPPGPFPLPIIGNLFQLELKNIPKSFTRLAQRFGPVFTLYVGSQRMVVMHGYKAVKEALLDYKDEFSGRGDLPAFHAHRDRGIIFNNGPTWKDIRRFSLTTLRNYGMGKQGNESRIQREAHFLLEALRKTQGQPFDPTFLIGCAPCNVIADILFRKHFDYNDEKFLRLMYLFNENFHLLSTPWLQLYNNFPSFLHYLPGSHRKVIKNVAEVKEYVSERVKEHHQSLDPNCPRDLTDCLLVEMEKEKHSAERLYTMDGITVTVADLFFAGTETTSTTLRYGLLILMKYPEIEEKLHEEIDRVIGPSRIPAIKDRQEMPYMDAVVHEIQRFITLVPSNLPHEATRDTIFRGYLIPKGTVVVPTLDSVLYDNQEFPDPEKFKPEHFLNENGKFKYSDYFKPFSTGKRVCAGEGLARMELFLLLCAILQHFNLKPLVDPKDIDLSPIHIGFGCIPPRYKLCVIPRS
- method: cocktail probe-substrate assay, HPLC
- Format: biochemical
- assay conditions: liver microsomes
endpoint name: IC50 (µM)
Answers are plain numbers, in µM.

Short answer for COc1cc2c(cc1OC)-c1cc3ccc4c(c3c[n+]1CC2)OCO4 [Epiberberine] : IC50 was 66.3

----------
- study system: CYP3A4 (HLM) (Homo sapiens)
- Sequence (P08684 2-503): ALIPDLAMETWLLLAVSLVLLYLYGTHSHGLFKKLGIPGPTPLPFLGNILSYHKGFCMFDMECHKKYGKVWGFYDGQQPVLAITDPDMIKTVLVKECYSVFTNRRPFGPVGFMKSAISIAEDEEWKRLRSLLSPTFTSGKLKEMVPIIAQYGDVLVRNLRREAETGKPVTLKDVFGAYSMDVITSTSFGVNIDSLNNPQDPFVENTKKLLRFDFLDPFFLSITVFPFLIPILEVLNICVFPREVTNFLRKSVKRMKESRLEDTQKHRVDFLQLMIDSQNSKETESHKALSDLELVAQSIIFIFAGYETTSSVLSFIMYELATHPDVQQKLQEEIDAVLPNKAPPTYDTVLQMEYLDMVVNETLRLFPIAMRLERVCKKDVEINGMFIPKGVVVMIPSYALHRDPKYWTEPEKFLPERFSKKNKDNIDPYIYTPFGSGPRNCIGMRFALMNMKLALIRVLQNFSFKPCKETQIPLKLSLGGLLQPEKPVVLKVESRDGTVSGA
- method: cocktail probe-substrate assay, HPLC
- Format: biochemical
- assay conditions: liver microsomes
endpoint name: IC50
Field: value (include unit after the number)

Short answer for COc1cc2c(cc1OC)-c1cc3ccc4c(c3c[n+]1CC2)OCO4 [Epiberberine] : IC50 was 81.5 µM

----------
- study system: CYP2C9 (HLM) (Homo sapiens, UniProt P11712)
- Sequence (P11712 whole entry): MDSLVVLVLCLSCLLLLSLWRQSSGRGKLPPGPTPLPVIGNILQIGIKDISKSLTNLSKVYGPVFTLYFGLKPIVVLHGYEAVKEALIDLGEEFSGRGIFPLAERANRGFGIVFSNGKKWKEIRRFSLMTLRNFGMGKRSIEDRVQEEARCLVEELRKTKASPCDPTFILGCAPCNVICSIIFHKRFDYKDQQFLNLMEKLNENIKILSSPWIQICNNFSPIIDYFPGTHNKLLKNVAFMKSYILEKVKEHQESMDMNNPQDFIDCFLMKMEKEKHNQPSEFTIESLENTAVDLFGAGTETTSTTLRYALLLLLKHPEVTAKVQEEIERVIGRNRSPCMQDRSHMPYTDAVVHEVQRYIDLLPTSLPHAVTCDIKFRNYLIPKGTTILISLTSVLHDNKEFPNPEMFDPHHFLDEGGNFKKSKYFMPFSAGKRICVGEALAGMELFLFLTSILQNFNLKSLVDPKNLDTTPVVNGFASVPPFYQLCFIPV
- method: cocktail probe-substrate assay, HPLC
- Format: biochemical
- assay conditions: liver microsomes
endpoint name: IC50 (µM)
Give bare numbers, in µM.

Short answer for COc1cc2c(cc1OC)-c1cc3ccc4c(c3c[n+]1CC2)OCO4 [Epiberberine] : IC50 was 8.18
